Assay explanation: Inhibition of caspase-like activity of human 20S proteasome assessed as release of free AMC substrate by fluorimetry based kinetic assay
pKi: −log10 of the molar value.

{"Smiles input": "C[C@@]12OC(=O)[C@]1([C@@H](O)[C@@H]1C=CCCC1)NC(=O)[C@@H]2CCCl", "pKi": "< 6.00"}

====

Assay explanation: Inhibition of chymotrypsin-like activity of yeast 20S proteasome
Set-up: species or system Saccharomyces cerevisiae
pIC50: −log10 of the molar value.
Below, each entry is listed alongside its reported pIC50.

{"Molecule": "C[C@@]12OC(=O)[C@]1([C@@H](O)[C@@H]1C=CCCC1)NC(=O)[C@@H]2CCCl", "pIC50": 8.70}
{"Molecule": "CC[C@H]1C(=O)N[C@@]2([C@@H](O)[C@@H]3C=CCCC3)C(=O)O[C@@]12C [SALINOSPORAMIDE B]", "pIC50": 7.80}

====

Assay explanation: Stability in 20 mM HEPES buffer assessed as beta-lactone hydrolysis rate at pH 7.3 at 37 degC

{"Compound": "C[C@@]12OC(=O)[C@]1([C@@H](O)[C@@H]1C=CCCC1)NC(=O)[C@@H]2CCF [FLUOROSALINOSPORAMIDE]", "half-life [h]": 1.32}
{"Compound": "C[C@@]12OC(=O)[C@]1([C@@H](O)[C@@H]1C=CCCC1)NC(=O)[C@@H]2CCOS(C)(=O)=O", "half-life [h]": 0.983}
{"Compound": "CCC[C@H]1C(=O)N[C@@]2([C@@H](O)[C@@H]3C=CCCC3)C(=O)O[C@@]12C", "half-life [h]": 2.85}
{"Compound": "C[C@@]12OC(=O)[C@@]1([C@@H](O)[C@@H]1C=CCCC1)NC(=O)[C@@H]2CCO [hydroxysalinosporamide A]", "half-life [h]": 1.42}
{"Compound": "C[C@H]1C(=O)N[C@@]2([C@@H](O)[C@@H]3C=CCCC3)C(=O)O[C@@]12C", "half-life [h]": 1.58}
{"Compound": "C[C@@]12OC(=O)[C@]1([C@@H](O)[C@@H]1C=CCCC1)NC(=O)[C@@H]2CCI [IODOSALINOSPORAMIDE]", "half-life [h]": 1.53}
{"Compound": "Cc1ccc(S(=O)(=O)OCC[C@H]2C(=O)N[C@@]3([C@@H](O)[C@@H]4C=CCCC4)C(=O)O[C@@]23C)cc1", "half-life [h]": 1.25}
{"Compound": "C[C@@]12OC(=O)[C@]1([C@@H](O)[C@@H]1C=CCCC1)NC(=O)[C@@H]2CCCl", "half-life [h]": 1.28}
{"Compound": "CN(C)c1cccc2c(S(=O)(=O)OCC[C@H]3C(=O)N[C@@]4([C@@H](O)[C@@H]5C=CCCC5)C(=O)O[C@@]34C)cccc12", "half-life [h]": 2.98}
{"Compound": "C[C@@]12OC(=O)[C@]1([C@@H](O)[C@@H]1C=CCCC1)NC(=O)[C@@H]2CCBr [BROMOSALINOSPORAMIDE]", "half-life [h]": 1.33}
{"Compound": "CC[C@H]1C(=O)N[C@@]2([C@@H](O)[C@@H]3C=CCCC3)C(=O)O[C@@]12C [SALINOSPORAMIDE B]", "half-life [h]": 3.17}
